Molecular target: T1, Kp FimHLD
T1 chain: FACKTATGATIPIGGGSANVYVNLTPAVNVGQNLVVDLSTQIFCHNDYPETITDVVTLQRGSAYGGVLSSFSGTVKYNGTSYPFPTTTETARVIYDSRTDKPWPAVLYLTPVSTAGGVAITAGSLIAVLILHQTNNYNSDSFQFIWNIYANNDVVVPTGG
Experiment: ELISA
In this section we review reported EC50 values for a set of binders.

binder	EC50 / µg/mL
Kp 2D07 (antibody, V domains shown) VH: EVQLQQSGPELVRPGASVKISCKASGYTFTDYYIHWLKQRPGQGLEWIGLIFPGSGSIYCNEKFKGKATLTVDKSSTTAYMLLSSLTSEDSAVYFCARWETTAWYFDVWGTGTTVTVSS VL: QIVLTQSPAILSASPGEKVTMTCRASLSVSYMHWYQQKPGSSPKPWIYATSNLASGVPARFSGSGSGTSYSLTVSRVEAEDAATYYCQQWRSYPYTFGGGTKLEIKR	0.0144
Ec3 B7 (antibody, V domains shown) VH: EVQLQQPGAELVRPGASVKMSCKASGYTFTIYNLHWVKQTPRQGLEWIGTIYPGDGDTSYNQKFKGKATLTVDKSSSTAYMQLSNLTSEDSAVYFCAREGDYGPWFAYWGQGTLVTVSA VL: QIVLTQSPAIMSASPGEKVTMTCRASSSVSSSYLHWYQQKSGASPKLWIYSSSNLASGVPARFSGSGSGTSYSLTINSVEAEDAATYYCQHYGSYPLTFGGGTKLEIKR	0.0391
Kp 2E08 (antibody, V domains shown) VH: EVQLQQPGAELAKPGASVKLSCKASGYNFTSYWMHWVKQRPGQGLEWIGLIHPNSGGTYYNEKFKSKATLTLDRSSSTAYMQLSSLTSEDSAVYYCARFEEEWGGYWYFDVWGTGTTVTVSS VL: QIVLTQSPALMAASPGEKVTITCSVSSSISSSNLHWYQQKSETSPKPWIYGTSNLASGVPVRFSGSGSGTSYSLTISSMEAEDAATYYCQQWSSYPYTFGGGTKLEIKR	0.0149
Kp1 1B03 (antibody, V domains shown) VH: EVQLQQSGAELVKPGASVKLSCKASGYTFTSYWMHWVQQRPGQGLEWIGLIHPIGGGTHYNEKFKNKATLTVDKSSSTAYMQLSSLTSEDSAVYYCARLGTGPYYFDYWGQGTTLTVSS VL: QIVLTQSPALMAASPGEKVTITCSVSSSISSSTLDWYQQKSETSPKPWVYGTSNLASGVPVRFSGSGSGTSYSLTISSMEAEDAATYYCQQWSSYPWTFGGGTKLEIKR	0.0125
Kp 1D09 (antibody, V domains shown) VH: EVQLQQPGAELVKPGASVKLSCKASGYTFTNYWIHWMKQRPGRGLEWIGRIEPNSGDTKYNEKIKSRATLTVDKPSSTAYMQLSSLTSEDSAVYYCARSGYDYPEAWGQGTTLTVSS VL: DIVLTQSPASLAVSPGQRATISCRASEGVEYYGTTLMQWYQQKPGQPPKLLIYAASNVESGVPARFSGSGSGTDFSLNIHPVEEDDIAMYFCQQSRKVSWTFGGGTKLEIKR	0.0383
Kp 1A09 (antibody, V domains shown) VH: EVQLQQPGAELVKPGASVKLSCKASGYTFTSYWMHWVKQRPGQGLEWIGLIHPNSGSTYYNEKFKNKATLTVDKSSSTAYMQLSSLTSEDSAVYYCARWDDSYWYFKVWGTGTTVTVSS VL: QIVLTQSPAILSASPGEKVTMTCRASSSVSYMHWYQQKPGSSPKPWIYATSNLASGVPARFSGSGSGTSYSLTISRVEAEDAATYYCQQWSSNPYTFGGGTKLEIKR	0.0161
Ec1 F7 (antibody, V domains shown) VH: EVQLQQPGPVLVKPGPSVKISCKASGFTFTDYFIHWVKQSHGKSLEWIGLVSPYNGGTYYNQQFKGKATLTVDTSSSTAYMDLNSLTSEDSAVYYCTRLLRGYWYFDVWGTGTTVTVSS VL: QIVLTQSPALMAASPGEKVTITCSVSSSIGSSNLHWYQQKSETSPKPWIYGTSNLASGVPVRFSGSGSGTSYSLTISSMEAEDAATYYCQQWSTYPYTFGGGTKLEIKR	0.0078
Kp 1B02 (antibody, V domains shown) VH: EVQLQQSGAELVRPGSSVKMSCKTSGYTFTFYGINWVKQRPGQGLEWIGYIYVGNGYSEYNEKFKVKATLTSDTSSSTAYMQLSGLTSEDSAIYFCARSDGYNYFDYWGQGTTLTVSS VL: QIVLTQSPAILSASPGEKVTMTCRASSSLHYMHWYQQKTGSSPKPWIYATSNLASGVPARFSGSGSGTSYSLTISRVEAEDTATYYCQQWSSNPPTFGAGTKLELKR	0.0166
Kp 2G02 (antibody, V domains shown) VH: EVQLQQSGPVLVKPGPSVKISCKASGFTFTDYYMHWVKQSHGKSLEWIGLVYPYNGGTYYNQKFKGKATLTVDTSSSTAYMELNSLTSEDSAVYYCVRLGNGSSNEWYFDVWGTGTTVTVSS VL: QIVLTQSPALMAASPGEKVTITCSVSSSISSYNLHWYQQKSETSPKPWIYGTSNLASGVPVRFSGSGSGTSYSLTISSMEAEDAATYYCQQWRTYPWTFGGGTKLEIKR	0.0105
Kp 1E07 (antibody, V domains shown) VH: EVQLQQPGAELVKPGASVKLSCKASGYTFTSYWMHWVKQRPGQGLEWIGLIHPNSGSTYYNEKFKNKATLTVDKSSSTAYMQLSSLTSEDSAVYYCARWDDSYWYFKVWGTGTTVTVSS VL: QIVLTQSPAILSASPGEKVTMTCRASSSVSYMHWYQQKPGSSPKPWIYATSNLASGVPARFSGSGSGTSYSLTISRVEAEDAATYYCQQWSSNPYTFGGGTKLEIKR	0.0115
Kp1 2H04 (antibody, V domains shown) VH: EVQLQQSGAELVKPGASVKLSCKASGYTFTSYWMHWVKQRPGQGLEWIGLIHPNSSSTYYNEKFKTRATLTVDKSSSTAYMQLSSLTSEDSAVYYCARLGYGNSYWYFDVWGTGTTVTVSS VL: QIVLTQSPALMAASPGEKVTITCSVSSSISSSNLHWYQQKSETSPKPWIYGTSNLASGVPIRFSGSGSGTSYSLTISSLEAEDAATYYCQQWRSYPWTFGGGTKLEIKR	0.0096
